For each record, write down the corresponding MIC.
- Test system: E. coli GN5482
- Experiment Notes: in vitro antibacterial activity, agar plate dilution method (MIC)
- Type: cell-based
- Experimental Parameters: Escherichia coli, GN5482, 16 h, read-out: Minimum Inhibitory Concentration (MIC), *E. coli GN5482, lactamase-producing strain; 10^6 CFU/ml
Answers are plain numbers, in µg/mL.

Compound	Metric	Observed Value
CCON=C(C(=O)N[C@@H]1C(=O)N2C(C(=O)[O-])=C(CSc3ncc(-c4ccc(O)c(O)c4)o3)CS[C@H]12)c1csc(N)n1.[Na+]	MIC	1.56
CCON=C(C(=O)N[C@@H]1C(=O)N2C(C(=O)[O-])=C(CSc3nc(-c4ccc(OC(C)=O)c(OC(C)=O)c4)cs3)CS[C@H]12)c1csc(N)n1.[Na+]	MIC	1.56
Nc1nc(/C(=N/OCc2ccccc2CC(=O)O)C(=O)N[C@@H]2C(=O)N3C(C(=O)O)=C(CSc4nnc(-c5ccc(O)c(O)c5)o4)CS[C@H]23)cs1	MIC	0.78
Nc1nc(/C(=N/OC(C(=O)O)c2ccccc2)C(=O)N[C@@H]2C(=O)N3C(C(=O)O)=C(CSc4nnc(-c5ccc(O)c(O)c5)o4)CS[C@H]23)cs1 (some centres unmarked)	MIC	1.56
Nc1nc(/C(=N/OC(C(=O)O)c2ccc(O)c(O)c2)C(=O)N[C@@H]2C(=O)N3C(C(=O)O)=C(CSc4ncc(-c5ccc(O)c(O)c5)o4)CS[C@H]23)cs1 (some centres unmarked)	MIC	6.25

Return reported MIC values for all items listed beneath this line.
1. C=CCON=C(C(=O)NC1C(=O)N2C(C(=O)O)=C(CSc3nc(-c4ccc(O)c(O)c4)cs3)CSC12)c1csc(N)n1 (centres unmarked)
2. CC(C)(O/N=C(\C(=O)N[C@@H]1C(=O)N2C(C(=O)O)=C(CSc3nnc(-c4ccc(O)c(O)c4)s3)CS[C@H]12)c1csc(N)n1)C(=O)O
3. CON=C(C(=O)NC1C(=O)N2C(C(=O)O)=C(CSc3ncc(-c4ccc(O)c(O)c4)o3)CSC12)c1csc(N)n1 (centres unmarked)

Resp:
[0.78, 0.78, 1.56]

---

- Tested on: E. cloacae 963
- Experiment Notes: in vitro antibacterial activity, agar plate dilution method (MIC)
- Type: cell-based
- Experimental Parameters: Enterobacter cloacae, 16 h; E. cloacae 963; 10^6 CFU/ml; read-out: Minimum Inhibitory Concentration (MIC)
For each record, write down the corresponding MIC.
Answers are plain numbers, in µg/mL.

Molecule	Unit Descriptor	Observed Value
Nc1nc(C(=NOC(C(=O)O)c2ccc(O)c(O)c2)C(=O)NC2C(=O)N3C(C(=O)O)=C(CSc4nnc(-c5ccc(O)c(O)c5)s4)CSC23)cs1 (single isomer, unassigned)	µg/mL	0.2
Nc1nc(/C(=N/OC2(C(=O)O)CC2)C(=O)N[C@@H]2C(=O)N3C(C(=O)O)=C(CSc4ncc(-c5ccc(O)c(O)c5)o4)CS[C@H]23)cs1	µg/mL	0.2
C=CCON=C(C(=O)NC1C(=O)N2C(C(=O)O)=C(CSc3nc(C(=O)O)c(-c4ccc(O)c(O)c4)s3)CSC12)c1csc(N)n1 (stereo not drawn)	µg/mL	0.1
CC(C)(O/N=C(\C(=O)N[C@@H]1C(=O)N2C(C(=O)O)=C(CSc3nc(-c4ccccc4)cs3)CS[C@H]12)c1csc(N)n1)C(=O)O [compound 11, reference compound]	µg/mL	6.2
Nc1nc(/C(=N/OCc2ccccc2)C(=O)N[C@@H]2C(=O)N3C(C(=O)O)=C(CSc4nnc(-c5ccc(O)c(O)c5)s4)CS[C@H]23)cs1	µg/mL	0.1
Nc1nc(/C(=N/OCc2ccccc2)C(=O)N[C@@H]2C(=O)N3C(C(=O)O)=C(CSc4nnc(-c5ccc(O)c(O)c5)o4)CS[C@H]23)cs1	µg/mL	0.0125
CC(=O)Oc1ccc(-c2nc(SCC3=C(C(=O)O)N4C(=O)C(NC(=O)C(=NOC(C)(C)C(=O)O)c5csc(N)n5)C4SC3)sc2CC(=O)O)cc1OC(C)=O (stereo not drawn)	µg/mL	0.2
Nc1nc(C(=NOC(C(=O)O)c2ccccc2)C(=O)NC2C(=O)N3C(C(=O)O)=C(CSc4nc(C(=O)O)c(-c5ccc(O)c(O)c5)s4)CSC23)cs1 (single isomer, unassigned)	µg/mL	0.2

Proceeding to the next molecule to report its MIC.
Req: Provide value of MIC for this record tested with E. cloacae 963: C#CCON=C(C(=O)NC1C(=O)N2C(C(=O)O)=C(CSc3nc(C(=O)O)c(-c4ccc(O)c(O)c4)s3)CSC12)c1csc(N)n1 (stereo not drawn)
Resp: 0.2

Where these numbers come from: patent US5061794A
